pIC50: −log10 of the molar value.
Below are compounds with their pIC50 as measured on Human FXa (Homo sapiens, UniProt P00742).
Sequence (P00742 235-488 limits assumed): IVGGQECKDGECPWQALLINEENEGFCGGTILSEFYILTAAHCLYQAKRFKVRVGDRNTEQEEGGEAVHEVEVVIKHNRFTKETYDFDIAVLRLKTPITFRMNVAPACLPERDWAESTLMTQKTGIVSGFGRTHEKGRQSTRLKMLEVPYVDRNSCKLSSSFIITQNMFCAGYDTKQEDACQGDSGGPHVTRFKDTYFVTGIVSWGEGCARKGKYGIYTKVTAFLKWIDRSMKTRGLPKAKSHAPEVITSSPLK
Sequence (P00742 41-179 partner limits assumed): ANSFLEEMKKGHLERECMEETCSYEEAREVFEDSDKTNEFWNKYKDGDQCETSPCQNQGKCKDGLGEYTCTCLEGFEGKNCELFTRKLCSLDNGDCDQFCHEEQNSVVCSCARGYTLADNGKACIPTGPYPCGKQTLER
QUANTITY NAME: pIC50

Worked examples, 2 compounds total:
COMPOUND: CC(=O)NCC1CN(S(=O)(=O)c2ccc3cc(Cl)ccc3c2)CC(=O)N1CC1CCN(c2ccncc2)CC1 (centres unmarked)
pIC50: 8.13

COMPOUND: NC(=O)C1CN(S(=O)(=O)c2ccc3cc(Cl)ccc3c2)CC(=O)N1CC1CCN(c2ccncc2)CC1 (centres unmarked)
pIC50: 7.77

P: O=C(O)C1CN(S(=O)(=O)c2ccc3cc(Cl)ccc3c2)CC(=O)N1CC1CCN(c2ccncc2)CC1 (centres unmarked)
Q: O=C(C1CCN(c2ccncc2)CC1)N1CCN(S(=O)(=O)/C=C/c2ccc(Cl)cc2)CC1 [Control, reference compound]
R: CCOC(=O)[C@@H]1CN(S(=O)(=O)c2ccc3cc(Cl)ccc3c2)CC(=O)N1CC1CCN(c2ccncc2)CC1
Exercise: Could you please sort these 3 entries by pIC50 from high to low? To answer, arrange all of the labels according to the requested order.
Key: P, R, Q
(P: 8.13, R: 7.15, Q: 6.82)

Data credit: patent EP1048652A1
